Origin of values: paper PMC8667935

- studySystem: STAT3 (Homo sapiens, UniProt P40763)
- Construct: recombinant human STAT3 protein (rhSTAT3)
- Sequence (P40763 2-770): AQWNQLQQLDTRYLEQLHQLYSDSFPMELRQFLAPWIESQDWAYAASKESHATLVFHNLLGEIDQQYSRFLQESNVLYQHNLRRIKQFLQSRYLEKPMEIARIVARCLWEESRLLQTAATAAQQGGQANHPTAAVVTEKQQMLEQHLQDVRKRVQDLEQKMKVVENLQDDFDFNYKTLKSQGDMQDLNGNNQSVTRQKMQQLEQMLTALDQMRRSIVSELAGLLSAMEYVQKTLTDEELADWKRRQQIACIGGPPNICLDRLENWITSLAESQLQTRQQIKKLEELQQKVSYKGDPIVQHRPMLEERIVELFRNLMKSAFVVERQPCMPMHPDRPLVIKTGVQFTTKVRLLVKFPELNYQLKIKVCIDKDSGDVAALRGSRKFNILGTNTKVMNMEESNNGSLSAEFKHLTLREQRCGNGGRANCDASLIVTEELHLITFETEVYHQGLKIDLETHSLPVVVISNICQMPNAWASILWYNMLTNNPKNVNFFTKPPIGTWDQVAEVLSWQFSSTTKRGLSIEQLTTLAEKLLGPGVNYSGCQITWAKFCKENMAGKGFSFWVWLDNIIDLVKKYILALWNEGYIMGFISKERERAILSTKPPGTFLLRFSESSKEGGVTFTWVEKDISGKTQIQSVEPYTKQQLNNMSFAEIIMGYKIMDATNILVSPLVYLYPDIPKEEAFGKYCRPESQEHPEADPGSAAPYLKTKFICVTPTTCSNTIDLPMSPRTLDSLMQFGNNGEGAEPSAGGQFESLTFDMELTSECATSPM
- test: SPR (Biacore T200, STAT3 amine-coupled to CM5 chip)
- Assay type: binding
reportedEndpoint: Kd (µM)

> print(dat)
                                  structure  unitabbreviation  observedvalue
1  CC1=C(O)C(=O)C=C2C1=CC=C1[C@@]2(C)CC[C@@]2(C)[C@@H]3C[C@](C)(C(=O)NCCc4cccs4)CC[C@]3(C)CC[C@]12C                µM           45.3

###

- studySystem: STAT3 (Homo sapiens)
- Construct: recombinant human STAT3 protein (rhSTAT3)
- test: SPR (Biacore T200, STAT3 amine-coupled to CM5 chip); positive control measured by the authors
- Type: binding
reportedEndpoint: Kd (µM)

> print(dat)
                                   compound  observedvalue
1  CC1=C(O)C(=O)C=C2C1=CC=C1[C@@]2(C)CC[C@@]2(C)[C@@H]3C[C@](C)(C(=O)O)CC[C@]3(C)CC[C@]12C [CEL, Celastrol]           60.4
